Provenance of the data: ChEMBL document CHEMBL3616397

Biological target: Sodium channel protein type 8 subunit alpha (Homo sapiens)
Assay: Inhibition of human NaV1.6 channel by patch clamp electrophysiology assay
Readout: IC50

query: Return reported IC50; argument: O=C(Nc1ccc(S(=O)(=O)Nc2nccs2)cc1)C(c1ccccc1)c1ccccc1
result: > 10 µM

###

Target: Sodium channel protein type 2 subunit alpha (Homo sapiens, UniProt Q99250)
Assay: Inhibition of human NaV1.2 channel by patch clamp electrophysiology assay
Readout: pIC50
Would you please state pIC50, meaning minus log10 of the concentration in mol/L, as a bare number?

query: Return reported pIC50; argument: O=C(Nc1ccc(S(=O)(=O)Nc2nccs2)cc1)C(c1ccccc1)c1ccccc1
result: 6.62

###

Biological target: Sodium channel protein type 4 subunit alpha (Homo sapiens, UniProt P35499)
Sequence (P35499 whole entry): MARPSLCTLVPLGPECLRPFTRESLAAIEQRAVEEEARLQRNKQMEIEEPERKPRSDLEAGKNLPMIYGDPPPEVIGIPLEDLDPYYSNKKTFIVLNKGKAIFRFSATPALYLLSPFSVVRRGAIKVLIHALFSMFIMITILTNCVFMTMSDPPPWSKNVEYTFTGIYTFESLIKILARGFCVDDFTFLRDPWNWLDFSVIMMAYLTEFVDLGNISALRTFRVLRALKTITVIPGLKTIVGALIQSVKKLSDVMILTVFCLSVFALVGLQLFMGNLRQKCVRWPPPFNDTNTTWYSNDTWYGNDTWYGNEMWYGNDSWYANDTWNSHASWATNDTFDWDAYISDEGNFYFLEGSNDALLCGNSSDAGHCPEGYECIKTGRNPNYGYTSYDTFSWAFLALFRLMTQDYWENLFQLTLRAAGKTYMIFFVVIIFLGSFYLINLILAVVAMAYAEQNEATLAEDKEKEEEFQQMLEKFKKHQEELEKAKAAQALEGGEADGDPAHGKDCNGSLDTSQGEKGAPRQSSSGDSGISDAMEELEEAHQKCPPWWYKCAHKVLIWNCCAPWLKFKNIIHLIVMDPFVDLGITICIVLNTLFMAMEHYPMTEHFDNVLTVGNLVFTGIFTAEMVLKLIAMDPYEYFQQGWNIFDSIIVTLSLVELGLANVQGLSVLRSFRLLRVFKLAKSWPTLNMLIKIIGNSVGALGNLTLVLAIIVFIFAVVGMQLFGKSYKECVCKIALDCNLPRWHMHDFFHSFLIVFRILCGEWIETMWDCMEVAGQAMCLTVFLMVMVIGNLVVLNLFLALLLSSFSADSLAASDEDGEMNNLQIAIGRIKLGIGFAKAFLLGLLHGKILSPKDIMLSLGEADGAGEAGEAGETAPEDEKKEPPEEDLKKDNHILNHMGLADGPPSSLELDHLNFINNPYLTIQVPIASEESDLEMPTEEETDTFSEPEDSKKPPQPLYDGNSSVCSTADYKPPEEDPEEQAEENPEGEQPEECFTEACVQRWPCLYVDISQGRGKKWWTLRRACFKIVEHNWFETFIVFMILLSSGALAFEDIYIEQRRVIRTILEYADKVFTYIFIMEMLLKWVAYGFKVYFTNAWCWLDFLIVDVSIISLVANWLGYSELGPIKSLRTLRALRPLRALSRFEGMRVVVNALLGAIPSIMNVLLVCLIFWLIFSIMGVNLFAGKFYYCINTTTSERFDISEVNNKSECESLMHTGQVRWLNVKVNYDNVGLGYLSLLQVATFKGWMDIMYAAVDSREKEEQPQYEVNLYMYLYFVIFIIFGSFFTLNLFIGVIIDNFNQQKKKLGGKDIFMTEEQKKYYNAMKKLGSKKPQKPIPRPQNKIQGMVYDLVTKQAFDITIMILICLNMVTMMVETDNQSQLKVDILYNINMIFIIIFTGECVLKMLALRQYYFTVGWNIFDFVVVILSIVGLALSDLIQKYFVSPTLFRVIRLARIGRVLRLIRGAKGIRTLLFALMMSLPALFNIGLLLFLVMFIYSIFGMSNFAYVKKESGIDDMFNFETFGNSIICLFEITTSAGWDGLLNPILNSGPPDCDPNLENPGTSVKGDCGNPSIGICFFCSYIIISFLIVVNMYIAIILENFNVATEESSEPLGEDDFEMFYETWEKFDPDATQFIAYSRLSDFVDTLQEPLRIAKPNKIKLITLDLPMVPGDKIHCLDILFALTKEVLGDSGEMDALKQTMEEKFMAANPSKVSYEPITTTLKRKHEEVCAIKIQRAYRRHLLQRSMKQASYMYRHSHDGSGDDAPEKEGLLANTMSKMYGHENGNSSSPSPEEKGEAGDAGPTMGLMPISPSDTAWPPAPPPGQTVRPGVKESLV
Assay: Inhibition of human NaV1.4 channel by patch clamp electrophysiology assay
Readout: IC50

query: Return reported IC50; argument: O=C(Nc1ccc(S(=O)(=O)Nc2nccs2)cc1)C(c1ccccc1)c1ccccc1
result: > 10 µM

###

Target: Sodium channel protein type 1 subunit alpha (Homo sapiens)
Assay: Inhibition of human NaV1.1 channel by patch clamp electrophysiology assay
pIC50: −log10 of the molar value.
Readout: pIC50

query: Form field: pIC50 recorded for O=C(Nc1ccc(S(=O)(=O)Nc2nccs2)cc1)C(c1ccccc1)c1ccccc1 with Sodium channel protein type 1 subunit alpha (Homo sapiens) (enter value)
result: > 7.70

###

Biological target: Sodium channel protein type 10 subunit alpha (Homo sapiens, UniProt Q9Y5Y9)
Sequence (Q9Y5Y9 whole entry): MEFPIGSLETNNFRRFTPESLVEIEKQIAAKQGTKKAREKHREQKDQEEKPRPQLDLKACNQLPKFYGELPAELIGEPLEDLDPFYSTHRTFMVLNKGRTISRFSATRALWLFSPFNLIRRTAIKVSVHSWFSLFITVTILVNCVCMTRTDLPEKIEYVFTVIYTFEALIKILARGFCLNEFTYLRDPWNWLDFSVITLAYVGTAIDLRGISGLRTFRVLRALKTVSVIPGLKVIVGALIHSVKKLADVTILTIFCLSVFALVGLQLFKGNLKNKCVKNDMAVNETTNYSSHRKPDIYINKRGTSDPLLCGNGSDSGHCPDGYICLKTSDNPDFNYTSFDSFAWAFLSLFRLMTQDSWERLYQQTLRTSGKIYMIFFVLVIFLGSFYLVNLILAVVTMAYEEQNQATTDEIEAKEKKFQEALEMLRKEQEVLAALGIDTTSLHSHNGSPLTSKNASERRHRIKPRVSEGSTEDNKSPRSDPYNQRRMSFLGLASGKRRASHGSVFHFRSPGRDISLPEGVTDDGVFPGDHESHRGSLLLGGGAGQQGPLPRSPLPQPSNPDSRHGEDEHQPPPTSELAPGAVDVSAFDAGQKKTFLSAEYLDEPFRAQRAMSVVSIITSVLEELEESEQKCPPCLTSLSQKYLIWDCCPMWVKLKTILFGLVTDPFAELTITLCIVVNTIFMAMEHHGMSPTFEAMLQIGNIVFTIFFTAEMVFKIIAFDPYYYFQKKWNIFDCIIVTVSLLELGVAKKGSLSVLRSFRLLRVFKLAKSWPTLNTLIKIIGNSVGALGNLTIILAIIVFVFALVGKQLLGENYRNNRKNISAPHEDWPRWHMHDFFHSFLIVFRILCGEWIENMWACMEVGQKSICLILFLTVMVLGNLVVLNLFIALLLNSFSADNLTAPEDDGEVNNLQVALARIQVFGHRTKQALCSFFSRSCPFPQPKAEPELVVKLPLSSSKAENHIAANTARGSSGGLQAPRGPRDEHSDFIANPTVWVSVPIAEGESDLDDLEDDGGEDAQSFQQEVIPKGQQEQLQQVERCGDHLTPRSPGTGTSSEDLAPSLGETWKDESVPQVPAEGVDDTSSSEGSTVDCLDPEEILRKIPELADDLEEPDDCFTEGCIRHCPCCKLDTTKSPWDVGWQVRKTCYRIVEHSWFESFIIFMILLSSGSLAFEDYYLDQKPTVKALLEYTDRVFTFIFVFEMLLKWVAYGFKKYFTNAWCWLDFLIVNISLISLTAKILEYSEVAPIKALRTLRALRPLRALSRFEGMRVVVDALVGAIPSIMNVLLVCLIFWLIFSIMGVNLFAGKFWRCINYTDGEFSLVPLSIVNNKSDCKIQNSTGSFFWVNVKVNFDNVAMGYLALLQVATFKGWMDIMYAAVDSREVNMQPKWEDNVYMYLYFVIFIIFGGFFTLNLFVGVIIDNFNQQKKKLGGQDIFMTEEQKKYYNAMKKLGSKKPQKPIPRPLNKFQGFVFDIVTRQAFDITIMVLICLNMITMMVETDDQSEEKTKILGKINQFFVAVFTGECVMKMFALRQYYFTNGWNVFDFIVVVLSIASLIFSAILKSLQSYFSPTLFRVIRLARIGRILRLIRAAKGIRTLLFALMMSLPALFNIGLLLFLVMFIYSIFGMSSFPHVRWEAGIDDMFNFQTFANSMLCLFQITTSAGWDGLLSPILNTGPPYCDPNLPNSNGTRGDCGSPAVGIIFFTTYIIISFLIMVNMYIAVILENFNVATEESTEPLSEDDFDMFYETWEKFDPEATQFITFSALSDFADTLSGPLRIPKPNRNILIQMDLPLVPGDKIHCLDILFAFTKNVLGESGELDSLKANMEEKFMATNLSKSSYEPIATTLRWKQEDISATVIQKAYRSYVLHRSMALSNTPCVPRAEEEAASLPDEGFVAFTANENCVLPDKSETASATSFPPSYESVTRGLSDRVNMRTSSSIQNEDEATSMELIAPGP
Assay: Inhibition of human NaV1.8 channel by patch clamp electrophysiology assay
Readout: IC50

query: Form field: IC50 recorded for O=C(Nc1ccc(S(=O)(=O)Nc2nccs2)cc1)C(c1ccccc1)c1ccccc1 with Sodium channel protein type 10 subunit alpha (Homo sapiens, UniProt Q9Y5Y9) (enter value)
result: > 10 µM

###

Biological target: Sodium channel protein type 9 subunit alpha (Homo sapiens)
Assay: Inhibition of human NaV1.7 channel expressed in HEK cells by patch clamp electrophysiology assay
Type: cell-based, HEK293
Readout: IC50 (nM)
Report as a plain number; the unit nM is understood.

query: Return reported IC50; argument: CCCOc1ncccc1-c1cc(C(=O)NS(C)(=O)=O)ccc1Oc1ccc(Cl)cc1
result: 14

###

Target: Sodium channel protein type 9 subunit alpha (Homo sapiens, UniProt Q15858)
Assay: Inhibition of human NaV1.7 channel expressed in HEK293 cells by patch clamp electrophysiology assay
Assay type: cell-based
Readout: IC50 (nM)
Report as a plain number; the unit nM is understood.

query: Form field: IC50 recorded for Nc1nc2cc(-c3cc(Cl)ccc3Oc3cc(F)c(S(=O)(=O)Nc4ncns4)cc3F)ccc2[nH]1 with Sodium channel protein type 9 subunit alpha (Homo sapiens, UniProt Q15858) (enter value)
result: 30

###

Target: Sodium channel protein type 3 subunit alpha (Homo sapiens, UniProt Q9NY46)
Experiment: Inhibition of human TTX-sensitive NaV1.3 channel expressed in HEK293 cells by patch clamp electrophysiology assay
pIC50: −log10 of the molar value.
Readout: pIC50

query: Form field: pIC50 recorded for O=C(Nc1ccc(S(=O)(=O)Nc2nccs2)cc1)C(c1ccccc1)c1ccccc1 with Sodium channel protein type 3 subunit alpha (Homo sapiens, UniProt Q9NY46) (enter value)
result: > 7.70
